A collection of binders and their measured kon
# system_under_test: T1, recombinant human FGF23 (R179Q) (human, UniProt Q9GZV9 25-251)
# T1 construct: also called rhFGF23(R179Q); hFGF23(R179Q)
# T1 sequence (looked up): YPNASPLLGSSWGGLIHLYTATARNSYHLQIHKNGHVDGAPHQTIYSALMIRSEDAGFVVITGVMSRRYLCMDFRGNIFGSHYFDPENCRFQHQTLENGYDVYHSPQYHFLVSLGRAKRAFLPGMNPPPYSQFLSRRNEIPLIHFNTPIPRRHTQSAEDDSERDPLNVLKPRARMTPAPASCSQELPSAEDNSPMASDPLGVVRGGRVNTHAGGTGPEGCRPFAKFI
# assay_method_text: SPR, antibody captured on hIgG chip, rhFGF23(R179Q) analyte
Give just the numeric value; M⁻¹ s⁻¹ need not be written.

binder	kon [M⁻¹ s⁻¹]
UGX151 (antibody, human IgG1, kappa, V domains shown, also called HC:N31F) VH: QVQLVQSGAEVKKPGASVKVSCKASGYTFTFHYMHWVRQAPGQGLEWMGIINPISGSTSNAQKFQGRVTMTRDTSTSTVYMELSSLRSEDTAVYYCARDIVDAFDFWGQGTMVTVSS VL: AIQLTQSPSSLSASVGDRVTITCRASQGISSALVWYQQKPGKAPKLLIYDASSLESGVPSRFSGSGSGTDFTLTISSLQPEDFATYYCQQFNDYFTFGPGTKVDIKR	8.32e+06
UGX164 (antibody, human IgG1, kappa, V domains shown, also called HC:S59T) VH: QVQLVQSGAEVKKPGASVKVSCKASGYTFTNHYMHWVRQAPGQGLEWMGIINPISGSTTNAQKFQGRVTMTRDTSTSTVYMELSSLRSEDTAVYYCARDIVDAFDFWGQGTMVTVSS VL: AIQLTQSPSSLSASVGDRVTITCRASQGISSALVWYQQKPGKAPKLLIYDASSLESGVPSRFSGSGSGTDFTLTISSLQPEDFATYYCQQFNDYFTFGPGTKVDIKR	5.64e+06

Just so you know, measured kon for UGX133 (antibody, human IgG1, kappa, V domains shown, also called UGX022; LC:S53Y) VH: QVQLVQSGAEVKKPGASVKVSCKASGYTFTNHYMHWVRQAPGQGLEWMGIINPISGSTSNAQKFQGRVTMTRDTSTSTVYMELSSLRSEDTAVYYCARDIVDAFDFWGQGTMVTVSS VL: AIQLTQSPSSLSASVGDRVTITCRASQGISSALVWYQQKPGKAPKLLIYDASYLESGVPSRFSGSGSGTDFTLTISSLQPEDFATYYCQQFNDYFTFGPGTKVDIKR came out at 3.63e+06

Where do the numbers come from? From patent US20260250371A1.
